Reference source: patent US20160053277A1

- measurement notes: 14C assay with IPTG-induced recombinant E. coli cells: 14CO2 captured from [14C]-carboxyl-labeled dicamba
- condition set: induced recombinant E. coli cells, [14C]-carboxyl-labeled dicamba, 14CO2 capture
measured metric: Dicamba Decarboxylase Activity

40 (protein, listed as Rhodococcus jostii) MAQGKIALEEHFAIPETLNDSAGFVPGTYWDELQARLLDIQDVRLKLMDEHNIETMILSLNAPAVQAIPERERAIDIARRANDVLAEECAKRPDRFRGFAALPLQDPDAAAEELRRCVTELGFVGALVNGFSQSATVDGGSTPLYYDLPRYRPFWAEVERLDVPFYLHPRNPLNQDARIYEGHPWLLGPTWAFAQETAVHALRLMASGLFDEHPGLRIVLGHMGEGIPAMLWRIDHRNAWVDVPPAYPAKRRMVDYFTENFFVTTSGNFRTQTLIDLLLELGSERVMFSTDWPFENINHAAEWFDAASISEADRLKIGRTNAATLFKLDR | Low
57 (protein, Collimonas fungivorans) MAKLICVEEHVLDPAVGAATQSLVRAEAPYLPDWGSRVLDGRHVADRSRPHVIAPSESARKALEMGEPRLADMDAASIDMQVLSYGGFPQLLPAAQAIDLNRAANDKLALAAQAHPARFAGFATLPWQAPEAAARELERAVKQLGLKGALINGRPGDTFLDDARYAPILAAFDELKVPLYVHPGLPLPAVQAPYYGGFERELSARLAMFAWGWHNEAGIQVVRMLLAGVFDRHPRLQLISGHWGEMVPFFLQRLEDSIPQEASGLQRPIVQTYREHVYISPSGMFTLPHFQFIHALMGAQRILYSIDYPYQSLDGARAFIERLPISDTDKALIAHRNAERLLHL | High
